Listed here are binders together with their documented relative signal [%].
# Target or system: monoclonal antibody mAB 198
# Measurement protocol: peptide microarray, fluorescence, linear peptide
Just the number in %, nothing appended.

binder="RRNPADY [RRNPADY, linear mimotope]" value_kind="relative signal [%]" meas_value=9.9
binder=RIRWNPADY value_kind="relative signal [%]" meas_value=6.8
binder=QWVDCNLKFNP value_kind="relative signal [%]" meas_value=6.4
binder="NPADYGN [NPADYGN, linear mimotope]" value_kind="relative signal [%]" meas_value=6.5
binder=HRLRWNPAD value_kind="relative signal [%]" meas_value=6.7

For `RLRYNPADY` , write its relative signal [%].
6.5

Note down relative signal [%] recorded for NPDDYGH [NPDDYGH, linear mimotope]
7.7

# return recorded relative signal [%] for entry `VRLRRNPAD`
25
